System: T-cell
ASSAY_PROCEDURE: CD25 cell surface staining on T-cells co-stimulated with anti-CD3 and anti-CD28 antibody (Biological Example 2)
Format: cell-based, human
CONDITION_NOTES: Homo sapiens, T-cell, fold change over baseline; 1 μM Cbl-b inhibitor; primary human total T-cells; read-out: CD25 staining Anti-CD3/Anti-CD28 stimulation
Description: Methods for experimentally determining increased T-cell activation, increased T-cell proliferation, decreased T-cell exhaustion, and/or decreased T-cell tolerance are well known in the art. Modulation of activity of an immune cell, such as a T-cell, a B cell or a NK cell can be measured by determining a baseline value for a parameter of interest (e.g., cytokine secretion). […] A positive response for immune cell activation can then be determined by the obtained reference value. […]
Task for the reader: assign each of the following compounds its reported fold induction at 1 µM.

Request the reported fold induction at 1 µM associated with `C[C@H](Cc1nncn1C)c1cccc(N2Cc3c(cc(C4CC4)cc3C(F)(F)F)C2=O)c1` 1.01 to 1.3

Request the reported fold induction at 1 µM associated with Cc1conc1CC(C)c1cccc(N2Cc3c(cccc3C(F)(F)F)C2=O)c1 (stereo not shown) 1.01 to 1.3

Request the reported fold induction at 1 µM associated with `C[C@H](Cc1nncn1C)c1cccc(N2Cc3c(cc(-c4ccn[nH]4)cc3C(F)(F)F)C2=O)c1` 1.31 to 1.5

Request the reported fold induction at 1 µM associated with `C[C@H](Cc1nncn1C)c1cccc(N2Cc3c(cc(C(=O)N4CC[C@H](O)C4)cc3C3CC3)C2=O)c1` 1.01 to 1.3

Request the reported fold induction at 1 µM associated with `Cc1ccc(C(=O)Nc2cccc([C@H](C)Sc3nncn3C)c2)nc1C` 1.01 to 1.3

Request the reported fold induction at 1 µM associated with `C[C@H](Cc1nncn1C)c1cccc(NC(=O)c2cc(C(F)(F)F)n[nH]2)c1` 1.01 to 1.3

Request the reported fold induction at 1 µM associated with Cc1nc2cc([C@H](C)Sc3nncn3C)cc(NC(=O)c3cccc(C(F)(F)F)n3)c2o1 [Compound 130a] 1.51 to 1.75

Request the reported fold induction at 1 µM associated with `Cn1cnnc1CC1(c2cccc(NC(=O)c3nc4c(C(F)(F)F)cccc4[nH]3)c2)COC1` 1.51 to 1.75

Request the reported fold induction at 1 µM associated with `CNS(=O)(=O)c1cc(C(=O)Nc2cccc([C@H](C)Cc3nncn3C)c2)nc(C(F)(F)F)c1` 1.01 to 1.3

Request the reported fold induction at 1 µM associated with `C[C@H](Cc1nncn1C)c1cccc(N2Cc3c(ccnc3C3CCC3)C2=O)c1` 1.01 to 1.3

Request the reported fold induction at 1 µM associated with Cc1ccc(C(=O)Nc2cccc(C(C)C(F)(F)c3nncn3C)c2)nc1C1CC1 (stereo not shown) < 1

Request the reported fold induction at 1 µM associated with `C[C@H](Cc1nncn1C)c1cc(OC2COC2)nc(N2Cc3c(cccc3C(F)(F)F)C2=O)c1` 1.01 to 1.3

Request the reported fold induction at 1 µM associated with C[C@H](Cc1nncn1C)c1ccnc(N2Cc3c(cccc3C(F)(F)F)C2=O)c1 [Compound 304b] 1.01 to 1.3

Request the reported fold induction at 1 µM associated with `C[C@H](Sc1nncn1C)c1ccnc(NC(=O)c2cc(Cl)cc(C(F)(F)F)n2)c1` 1.01 to 1.3

Request the reported fold induction at 1 µM associated with `C[C@H](Cc1nncn1C)c1cccc(NC(=O)c2nc3c(C4CC4)cccc3[nH]2)c1` 1.01 to 1.3

Request the reported fold induction at 1 µM associated with Cn1cnnc1C[C@](C)(F)c1cccc(N2Cc3c(cccc3C(F)(F)F)C2=O)c1 [Compound 298b] < 1

* * *

Tested on: T-cell
ASSAY_PROCEDURE: IL-2 secretion from T-cells stimulated with anti-CD3 antibody alone (Biological Example 2)
Format: cell-based, human
CONDITION_NOTES: T-cell; fold change over baseline; 1 μM Cbl-b inhibitor; primary human total T-cells; read-out: IL-2 secretion Anti-CD3 stimulation
READOUT_NAME: fold induction at 1 µM

Request the reported fold induction at 1 µM associated with `C[C@H](Cc1nncn1C)c1cccc(NC(=O)c2cn3ccnc3cn2)c1` 0.051 to 0.1

Request the reported fold induction at 1 µM associated with `C[C@H](Sc1nncn1C)c1cccc(NC(=O)c2cc(C(F)(F)F)ccn2)c1` < 0.05

Request the reported fold induction at 1 µM associated with `C[C@H](Cc1nncn1C)c1cccc(NC(=O)c2cnn3cccnc23)c1` 0.051 to 0.1

Request the reported fold induction at 1 µM associated with `Cc1ccc(C(=O)Nc2cccc([C@H](C)Sc3nncn3C)c2)nc1C` < 0.05

Request the reported fold induction at 1 µM associated with `CNc1cc([C@H](C)Cc2nncn2C)cc(N2Cc3c(cccc3C(F)(F)F)C2=O)n1` 0.051 to 0.1

Request the reported fold induction at 1 µM associated with `C[C@H](Cc1nncn1C)c1cccc(NC(=O)c2cccc(C(C)(C)C)n2)c1` 0.051 to 0.1

Request the reported fold induction at 1 µM associated with `C[C@H](Sc1nncn1C)c1cccc(NC(=O)c2ccc(Cl)c(C(F)(F)F)n2)c1` < 0.05

* * *

Test system: primary human total T-cells
ASSAY_PROCEDURE: T-cell activation assessed by cytokine secretion (GM-CSF, IFNγ, TNFα)
Type: cell-based
CONDITION_NOTES: CD3 alone stimulation, 1.11 μM, read-out: GM-CSF secretion
Task for the reader: assign each of the following molecules its reported fold induction at 1.11 µM.

Request the reported fold induction at 1.11 µM associated with Cn1cnnc1CC1(c2cccc(N3Cc4c(cc(CN5CC(F)C5)cc4C(F)(F)F)C3=O)c2)COC1 [Compound 415] 2.01 to 4

Request the reported fold induction at 1.11 µM associated with C[C@H](Cc1nncn1C)c1cccc(NC(=O)c2n[nH]c3c2CCC3)c1 [Compound 313] ≤ 1.5

Request the reported fold induction at 1.11 µM associated with Cc1cc(C(=O)Nc2cccc(C3(Cc4nncn4C)COC3)c2)nc(C2CC2)n1 [Compound 336] 2.01 to 4

Request the reported fold induction at 1.11 µM associated with Cn1cnnc1[C@@H]1C[C@@H]1c1cccc(N2Cc3c(cccc3C(F)(F)F)C2=O)c1 [Compound 282] ≤ 1.5

Request the reported fold induction at 1.11 µM associated with CNCc1ccc(C(=O)Nc2cccc([C@H](C)Cc3nncn3C)c2)nc1C1CC1 [Compound 376] 1.51 to 2

Request the reported fold induction at 1.11 µM associated with C[C@@H](c1cc2c(c(C(F)(F)F)c1)CN(c1cccc(C3(Cc4nncn4C)COC3)c1)C2=O)N1CC[C@H](F)C1 [Compound 412] > 4

Request the reported fold induction at 1.11 µM associated with C[C@H](Sc1nncn1C)c1cccc(NC(=O)c2cc(C(=O)N3CC[C@H](O)C3)ccn2)c1 [Compound 140] 2.01 to 4

* * *

Test system: anergic human T-cells
ASSAY_PROCEDURE: Anergic T-cell activation assessed by IFNγ secretion (ionomycin-induced anergy)
Assay type: cell-based
CONDITION_NOTES: 1.11 μM, anergic T-cells re-challenged with anti-CD3 and anti-CD28 for 24 hours, read-out: IFNγ Fold change from baseline
Task for the reader: assign each of the following molecules its reported fold induction at 1.11 µM.

Request the reported fold induction at 1.11 µM associated with `Cn1cnnc1CC1(c2cccc(N3Cc4c(cc(CN5CCC6(CC6)C5)cc4C(F)(F)F)C3=O)c2)COC1` 2.51 to 4

Request the reported fold induction at 1.11 µM associated with `Cn1cnnc1CC1(c2cccc(N3Cc4c(cc(CN5CC(F)C5)cc4C(F)(F)F)C3=O)c2)COC1` 2.51 to 4

Request the reported fold induction at 1.11 µM associated with `C[C@H](Cc1nncn1C)c1cccc(N2Cc3c(ccnc3C3CC3)C2=O)c1` ≤ 2.5

Request the reported fold induction at 1.11 µM associated with C[C@H](Cc1nncn1C)c1cccc(NC(=O)c2cccc(C(F)(F)F)n2)c1 [Compound 183a] 2.51 to 4

Request the reported fold induction at 1.11 µM associated with `Cc1n[nH]c(C)c1-c1cc2c(c(C(F)(F)F)c1)CN(c1cccc(C3(Cc4nncn4C)COC3)c1)C2=O` ≤ 2.5

Request the reported fold induction at 1.11 µM associated with C[C@H](Cc1nncn1C)c1cccc(N2Cc3c(cccc3C(F)(F)F)C2=O)c1 [Compound 255a] 2.51 to 4

Request the reported fold induction at 1.11 µM associated with `C[C@H](Cc1nncn1C)c1cccc(N2Cc3c(cc(CN4CC(C)(O)C4)cc3C(F)(F)F)C2=O)c1` > 4.01

Request the reported fold induction at 1.11 µM associated with `C[C@H](Cc1nncn1C)c1cccc(N2Cc3c(cc(CN4CC[C@H](F)C4)cc3C(F)(F)F)C2=O)c1` > 4.01

Request the reported fold induction at 1.11 µM associated with `C[C@@H](c1cc2c(c(C(F)(F)F)c1)CN(c1cccc(C3(Cc4nncn4C)COC3)c1)C2=O)N1CC[C@H](F)C1` > 4.01

Request the reported fold induction at 1.11 µM associated with `Cn1cnnc1CC1(c2cccc(NC(=O)c3cc(CN4CCC5(CC5)C4)cc(C4CC4)n3)c2)COC1` > 4.01

Request the reported fold induction at 1.11 µM associated with `Cc1cc(C(=O)Nc2cccc([C@@H](C)Cc3nncn3C)c2)nc(C2CC2)n1` ≤ 2.5

Request the reported fold induction at 1.11 µM associated with `Cc1cc(C(=O)Nc2cccc(C3(Cc4nncn4C)COC3)c2)nc(C2CC2)n1` 2.51 to 4

Request the reported fold induction at 1.11 µM associated with `Cn1cnnc1C(F)(F)[C@](C)(F)c1cccc(N2Cc3c(cc(CN4CC[C@@H](C#N)C4)cc3C(F)(F)F)C2=O)c1` 2.51 to 4

Request the reported fold induction at 1.11 µM associated with `Cn1cnnc1[C@@H]1C[C@@H]1c1cccc(N2Cc3c(ccnc3C(F)(F)F)C2=O)c1` ≤ 2.5
